tested on: Saccharomyces cerevisiae; test: Antifungal activity against Saccharomyces cerevisiae ADMDR1 expressing Candida albicans MDR1 efflux pump in YNPG medium containing 1 mg/ml […] after 24 hrs by microdilution method; format: functional; settings: ADMDR1, 24 h
measured endpoint: MIC

Reference set, count: 4
{"compound": "NC(Cc1cccc(F)c1)C(=O)O (stereo not given)", "MIC": "32 µg/mL"}
{"compound": "NC(CC(=O)NO)C(=O)O (stereo not given)", "MIC": "128 µg/mL"}
{"compound": "[N-]=[N+]=CC(=O)CC[C@H](N)C(=O)O", "MIC": "0.5 µg/mL"}
{"compound": "N[C@H]1CCC[C@H]1C(=O)O", "MIC": "256 µg/mL"}

Would you kindly look at the next entry?
Input `[N-]=[N+]=CC(=O)OC[C@H](N)C(=O)O` . Output MIC: 2 µg/mL

====

test system: Saccharomyces cerevisiae; test: Drug uptake in Saccharomyces cerevisiae ADMDR1 at 50 uM pretreated for 10 mins measured after 60 mins by fluorescamine staining in presence of fluconazole; settings: in vivo, 1 h
Non-standard residues stand in square brackets, D forms with d. Residues, ends and D or L forms follow the SMILES beside them. Phe(3-F) = N[C@@H](Cc1cccc(F)c1)C(=O)O
Below: a set of entries, each annotated with reported Drug uptake.
Answer format: numeric, nmol/min/mg implied, no suffix.

Reference set, count: 3
{"compound": "C[C@@H]([C@H](N)C(=O)N[C@H](C(=O)O)[C@H]1O[C@@H](n2ccc(=O)[nH]c2=O)[C@H](O)[C@@H]1O)[C@H](O)c1ccc(O)cn1", "value reported": 0.34}
{"compound": "CC(C)C[C@H](N)C(=O)N[C@@H](Cc1cccc(F)c1)C(=O)O (H-Leu-[Phe(3-F)]-OH)", "value reported": 0.87}
{"compound": "CC(C)C[C@H](NC(=O)[C@@H](N)COCCN)C(=O)NCC(=O)O", "value reported": 0.85}

Input C[C@H](N)C(=O)N[C@@H](C)C(=O)O (H-Ala-Ala-OH) . Output Drug uptake: 2.61

====

tested on: Saccharomyces cerevisiae; assay: Antifungal activity against Saccharomyces cerevisiae AD12345678 in YNPG-proline medium after 24 hrs by microdilution method; type: functional; settings: AD12345678, 24 h
Non-standard residues stand in square brackets, D forms with d. Residues, ends and D or L forms follow the SMILES beside them. *: point of attachment. Phe(3-F) = N[C@@H](Cc1cccc(F)c1)C(=O)O; Ethyl(2-NH2) = NCC*
Threshold check on MIC: strictly below 100 µg/mL is Fulfilled; on or above 100 µg/mL is Not fulfilled.

Worked cases, answers included:
{"compound": "CCC[C@H](NC(=O)[C@@H](N)CCCCN)C(=O)N[C@@H](CNC(=O)/C=C/C(=O)OC)C(=O)O", "label class": "Fulfilled"}
{"compound": "CSCC[C@H](NC(=O)[C@@H](N)CCSC)C(=O)N[C@@H](Cc1cccc(F)c1)C(=O)O (H-Met-Met-[Phe(3-F)]-OH)", "label class": "Not fulfilled"}
{"compound": "CCC[C@H](N)C(=O)N[C@@H](CNC(=O)/C=C/C(=O)OC)C(=O)O", "label class": "Fulfilled"}
{"compound": "CC(C)C[C@H](NC(=O)[C@H](CC(C)C)NC(=O)[C@@H](N)COCCN)C(=O)NCC(=O)O (H-S(Ethyl(2-NH2))LLG-OH)", "label class": "Fulfilled"}
{"compound": "C[C@@H]([C@H](N)C(=O)N[C@H](C(=O)O)[C@H]1O[C@@H](n2ccc(=O)[nH]c2=O)[C@H](O)[C@@H]1O)[C@H](O)c1ccc(O)cn1 [NIKKOMYCIN]", "label class": "Not fulfilled"}

Enquiry: Is the reported MIC for OC(Cn1cncn1)(Cn1cncn1)c1ccc(F)cc1F [FLUCONAZOLE] strictly below 100 µg/mL?
Return: Fulfilled

Enquiry: Is the reported MIC for `CC(C)C[C@H](NC(=O)[C@@H](N)COCCN)C(=O)NCC(=O)O` strictly below 100 µg/mL?
Return: Fulfilled

Enquiry: Is the reported MIC for CC(C)C[C@H](NC(=O)[C@H](CC(C)C)NC(=O)[C@H](CC(C)C)NC(=O)[C@@H](N)COCCN)C(=O)NCC(=O)O (H-S(Ethyl(2-NH2))LLLG-OH) strictly below 100 µg/mL?
Return: Not fulfilled

Enquiry: Is the reported MIC for CC(C)C[C@H](N)C(=O)N[C@@H](Cc1cccc(F)c1)C(=O)O (H-Leu-[Phe(3-F)]-OH) strictly below 100 µg/mL?
Return: Not fulfilled

Values from ChEMBL document CHEMBL1649115
